Every entry's value here was drawn from ChEMBL document CHEMBL4680217.

Reported values of Activity for individual entries
target: von Hippel-Lindau disease tumor suppressor/Bcl-2-like protein 1 (Homo sapiens, UniProt Q07817+P40337); assay: Protac activity at VHL/BCL-XL in human MOLT-4 cells assessed as induction of BCL-XL degradation by measuring remaining BCL-XL level at 100 nM measured after 16 hrs by immunoblotting analysis relative to control; format: cell-based
Sequence (P40337 whole entry, looked up, one chain of several): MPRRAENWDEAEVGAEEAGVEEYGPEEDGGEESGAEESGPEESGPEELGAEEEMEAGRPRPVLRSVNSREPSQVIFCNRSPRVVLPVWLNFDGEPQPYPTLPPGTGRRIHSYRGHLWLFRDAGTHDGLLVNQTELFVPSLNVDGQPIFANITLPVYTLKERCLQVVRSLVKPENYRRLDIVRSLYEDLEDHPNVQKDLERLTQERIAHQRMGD
Form entry: value (%) — number only.

// sample Cc1ncsc1-c1ccc([C@H](C)NC(=O)[C@@H]2C[C@@H](O)CN2C(=O)[C@@H](NC(=O)COCCOCC(=O)N2CCN(CC[C@H](CSc3ccccc3)Nc3ccc(S(=O)(=O)NC(=O)c4ccc(N5CCN(CC6=C(c7ccc(Cl)cc7)CCC(C)(C)C6)CC5)cc4)cc3S(=O)(=O)C(F)(F)F)CC2)C(C)(C)C)cc1 , its Activity was 79

Noted for Cc1ncsc1-c1ccc([C@H](C)NC(=O)[C@@H]2C[C@@H](O)CN2C(=O)[C@@H](NC(=O)CCCCCCCCCN(C)CC[C@H](CSc2ccccc2)Nc2ccc(S(=O)(=O)NC(=O)c3ccc(N4CCN(CC5=C(c6ccc(Cl)cc6)CCC(C)(C)C5)CC4)cc3)cc2S(=O)(=O)C(F)(F)F)C(C)(C)C)cc1 : its Activity reads 62

Pending molecule:
Briefly, Activity measured for Cc1ncsc1-c1ccc([C@H](C)NC(=O)[C@@H]2C[C@@H](O)CN2C(=O)[C@@H](NC(=O)CCCC(=O)N2CCN(CC[C@H](CSc3ccccc3)Nc3ccc(S(=O)(=O)NC(=O)c4ccc(N5CCN(CC6=C(c7ccc(Cl)cc7)CCC(C)(C)C6)CC5)cc4)cc3S(=O)(=O)C(F)(F)F)CC2)C(C)(C)C)cc1 : 82

----------
biological target: Protein cereblon/Apoptosis regulator Bcl-2 (Homo sapiens) (UniProt P10415+Q96SW2); experiment: Protac activity at CRBN/BCL2 in human MOLT-4 cells assessed as induction of BCL2 degradation at 50 nM measured after 16 hrs by immunoblotting analysis; format: cell-based
Sequence (P10415 whole entry, looked up, one chain of several): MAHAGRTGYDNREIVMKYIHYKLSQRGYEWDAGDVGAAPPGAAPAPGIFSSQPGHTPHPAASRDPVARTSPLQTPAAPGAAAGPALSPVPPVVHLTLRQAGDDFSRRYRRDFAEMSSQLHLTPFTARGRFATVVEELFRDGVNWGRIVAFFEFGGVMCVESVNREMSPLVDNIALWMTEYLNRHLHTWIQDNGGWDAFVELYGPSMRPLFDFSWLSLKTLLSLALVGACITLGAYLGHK
The source made the active and inactive calls. The calls are words filed in the database; no cut-off is given here.
MEASURED_QUANTITY: Activity

The measured Activity associated with CC1(C)CCC(c2ccc(Cl)cc2)=C(CN2CCN(c3ccc(C(=O)NS(=O)(=O)c4ccc(N[C@H](CCN5CCN(C(=O)COCCOCCOCCNc6cccc7c6C(=O)N([C@@H]6CCC(=O)NC6=O)C7=O)CC5)CSc5ccccc5)c(S(=O)(=O)C(F)(F)F)c4)cc3)CC2)C1 reads inactive

Field Activity (entry CC1(C)CCC(c2ccc(Cl)cc2)=C(CN2CCN(c3ccc(C(=O)NS(=O)(=O)c4ccc(N[C@H](CCN5CCN(C(=O)NCCOCCOCCNc6cccc7c6C(=O)N([C@@H]6CCC(=O)NC6=O)C7=O)CC5)CSc5ccccc5)c(S(=O)(=O)C(F)(F)F)c4)cc3)CC2)C1 ) reads inactive

----------
molecular target: Protein cereblon/Bcl-2-like protein 1 (Homo sapiens, UniProt Q07817+Q96SW2); experiment: Protac activity at CRBN/BCL-XL in human MOLT-4 cells assessed as induction of BCL-XL degradation by measuring remaining BCL-XL level at 50 nM measured after 16 hrs by immunoblotting analysis relative to control; assay type: cell-based
Sequence (Q07817 whole entry, looked up): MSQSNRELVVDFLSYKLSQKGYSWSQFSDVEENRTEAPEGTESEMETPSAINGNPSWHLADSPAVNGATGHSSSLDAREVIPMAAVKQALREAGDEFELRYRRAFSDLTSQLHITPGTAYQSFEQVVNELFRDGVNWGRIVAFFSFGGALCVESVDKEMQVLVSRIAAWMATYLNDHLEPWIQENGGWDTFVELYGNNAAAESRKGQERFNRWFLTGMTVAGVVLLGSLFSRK
Sequence (Q96SW2 whole entry, looked up): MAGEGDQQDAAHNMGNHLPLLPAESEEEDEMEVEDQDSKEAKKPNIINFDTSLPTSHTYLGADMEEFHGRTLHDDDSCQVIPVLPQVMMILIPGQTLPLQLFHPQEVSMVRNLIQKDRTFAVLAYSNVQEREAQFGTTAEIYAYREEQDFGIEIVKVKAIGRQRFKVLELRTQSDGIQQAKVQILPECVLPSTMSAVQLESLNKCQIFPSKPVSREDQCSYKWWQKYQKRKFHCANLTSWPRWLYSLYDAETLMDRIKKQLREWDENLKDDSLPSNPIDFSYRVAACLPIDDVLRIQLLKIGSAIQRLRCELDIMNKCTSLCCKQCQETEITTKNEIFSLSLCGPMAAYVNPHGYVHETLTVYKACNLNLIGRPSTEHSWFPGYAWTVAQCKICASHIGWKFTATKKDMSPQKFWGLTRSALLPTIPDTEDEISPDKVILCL
MEASURED_QUANTITY: Activity (%)

Use these answered entries as a reference point.
Recorded result, CC1(C)CCC(c2ccc(Cl)cc2)=C(CN2CCN(c3ccc(C(=O)NS(=O)(=O)c4ccc(N[C@H](CCN5CCN(C(=O)COCCOCCOCCOCCNc6cccc7c6C(=O)N([C@@H]6CCC(=O)NC6=O)C7=O)CC5)CSc5ccccc5)c(S(=O)(=O)C(F)(F)F)c4)cc3)CC2)C1 , Activity: 11

For record CC1(C)CCC(c2ccc(Cl)cc2)=C(CN2CCN(c3ccc(C(=O)NS(=O)(=O)c4ccc(N[C@H](CCN5CCN(C(=O)NCCOCCOCCNc6cccc7c6C(=O)N([C@@H]6CCC(=O)NC6=O)C7=O)CC5)CSc5ccccc5)c(S(=O)(=O)C(F)(F)F)c4)cc3)CC2)C1 the listed Activity is 27

So, CN(CC[C@H](CSc1ccccc1)Nc1ccc(S(=O)(=O)NC(=O)c2ccc(N3CCN(CC4=C(c5ccc(Cl)cc5)CCC(C)(C)C4)CC3)cc2)cc1S(=O)(=O)C(F)(F)F)C(=O)CCCCCCn1cc(COCCOCCNc2cccc3c2C(=O)N([C@@H]2CCC(=O)NC2=O)C3=O)nn1 ? Its Activity was 28

I = CC1(C)CCC(c2ccc(Cl)cc2)=C(CN2CCN(c3ccc(C(=O)NS(=O)(=O)c4ccc(N[C@H](CCN5CCN(CCOCCOCCNc6cccc7c6C(=O)N([C@@H]6CCC(=O)NC6=O)C7=O)CC5)CSc5ccccc5)c(S(=O)(=O)C(F)(F)F)c4)cc3)CC2)C1
II = CN(CCCCCCCn1cc(COCCOCCOCCNc2cccc3c2C(=O)N([C@@H]2CCC(=O)NC2=O)C3=O)nn1)CC[C@H](CSc1ccccc1)Nc1ccc(S(=O)(=O)NC(=O)c2ccc(N3CCN(CC4=C(c5ccc(Cl)cc5)CCC(C)(C)C4)CC3)cc2)cc1S(=O)(=O)C(F)(F)F
III = CN(CCOCCOCCOCCOCCNc1cccc2c1C(=O)N([C@@H]1CCC(=O)NC1=O)C2=O)CC[C@H](CSc1ccccc1)Nc1ccc(S(=O)(=O)NC(=O)c2ccc(N3CCN(CC4=C(c5ccc(Cl)cc5)CCC(C)(C)C4)CC3)cc2)cc1S(=O)(=O)C(F)(F)F
Query: Put the items in order so that reported Activity rises from first to last. List each label, following the requested order.
Result: III, I, II
(III: 5%, I: 13%, II: 24%)
